ASSAY DETAILS: qHTS RealTime-Glo MT Cell Viability Assay in HEK293 cells - 40 hour (AID 1224874); further: on the % scale 0 is the no-effect control and ±100 the full control effect; nearly all actives have a fitted effect of over 50% in size
REPORTED CONDITIONS: RealTime-Glo luminescence; stronger effect = lower value
Inconclusive results are not listed.
Reported max response values follow for various compounds
MEASURE: max response (%)

• CC(C)COC(=O)c1ccccc1O = 7.83
• CN(C)CCn1nnnc1SCC1=C(C(=O)O)N2C(=O)[C@@H](NC(=O)Cc3csc(N)n3)[C@H]2SC1 = 13.3
• CCCCCCCCCCCl = 6.94
• C[C@H]1O[C@@H](n2cc(F)c(=O)[nH]c2=O)[C@H](O)[C@@H]1O = 0.654
• OC[C@H]1O[C@@H]2O[C@H]3[C@H](O)[C@@H](O)[C@@H](O[C@H]4[C@H](O)[C@@H](O)[C@@H](O[C@H]5[C@H](O)[C@@H](O)[C@@H](O[C@H]6[C@H](O)[C@@H](O)[C@@H](O[C@H]7[C@H](O)[C@@H](O)[C@@H](O[C@H]8[C@H](O)[C@@H](O)[C@@H](O[C@H]9[C@H](O)[C@@H](O)[C@@H](O[C@H]1[C@H](O)[C@H]2O)O[C@@H]9CO)O[C@@H]8CO)O[C@@H]7CO)O[C@@H]6CO)O[C@@H]5CO)O[C@@H]4CO)O[C@@H]3CO = 1.22
• O=S(=O)(O)c1ccccc1O = 8.61
• C=C(C)[C@@H]1CCC2=CC(=O)C[C@@H](C)[C@]2(C)C1 = 3.58

###

ASSAY DETAILS: qHTS assay to identify small molecule antagonists of the estrogen receptor alpha (ER-alpha) signaling pathway using the BG1 cell line (AID 743080);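 further: BG1 cells stimulated with 17beta-estradiol alongside compound; on the % scale 0 is the no-effect control and ±100 the full control effect; nearly all actives have a fitted effect of over 25% in size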
REPORTED CONDITIONS: BG1Luc4E2 ERE-luciferase antagonist mode, luminescence; series mostly up to 70.3 µM
Inconclusive results are not listed. Calls of active or inactive are those of the source. Calls follow the shape of the full dose curve.
MEASURE: outcome

• NC(=O)c1c(Cl)cccc1Cl = inactive
• CC1=CCC2C(C1)C2(C)C (centres undefined) = inactive
• CC(C)(C)N(CCO)CCO = inactive
• CC1CCN(CCCC(=O)c2ccc(F)cc2)CC1 = inactive
• CCC(C)(C)C1CCC(OC)CC1 (centres undefined) = inactive
• C=C(C)C(=O)OCCC(C)OC(=O)C(=C)C (centres undefined) = inactive
• Cc1nccn1CC1CCc2c(c3ccccc3n2C)C1=O (centres undefined) = inactive
• CCO[Si](C)(OCC)OCC = inactive
• O=[N+]([O-])c1ccc(CCO)cc1 = inactive
• CCC(=O)Nc1cccc(N)c1 = inactive
• Nc1nc(F)nc2c1ncn2[C@@H]1O[C@H](CO)[C@@H](O)[C@@H]1O = inactive
• C=C[Si](OC)(OC)OC = inactive
• O=S(=O)(O)c1ccccc1O = inactive
• Fc1ccccc1-c1ccccc1 = inactive
• Cc1cc(C)cc(OCC2CNC(=O)O2)c1 (centres undefined) = inactive
• CCCCCCC(CCCCCCCCCCC(=O)OCC(COC(C)=O)OC(C)=O)OC(C)=O (centres undefined) = inactive
• OCc1ccccn1 = inactive
• OCC(CO)(CO)COCC(CO)(CO)CO = inactive
• C=C(C)[C@@H]1CCC2=CC(=O)C[C@@H](C)[C@]2(C)C1 = inactive
• Cc1ncc(CSSCc2cnc(C)c(O)c2CO)c(CO)c1O = inactive
• CCCCN(CCO)CCO = inactive
• NC(=O)c1ncn([C@@H]2O[C@H](CO)[C@@H](O)[C@H]2O)c1N = inactive
• CC(C)=CCC/C(C)=C/C(=O)O = inactive
• COc1cc(O)cc(O)c1 = inactive
• CCCCCCOC(=O)CC(CC(=O)OCCCCCC)(OC(=O)CCC)C(=O)OCCCCCC = inactive
• O=C(O)c1cccc(C(=O)O)n1 = inactive
• CC(=O)N[C@@H](CCC(N)=O)C(=O)O = inactive
• O=[N+]([O-])c1ccc(Oc2ccc([N+](=O)[O-])cc2)cc1 = inactive
• O=C(O)C(O)[C@H](O)[C@@H](O)[C@H](O)[C@H](O)CO (some centres undefined) = inactive

###

ASSAY DETAILS: Human pregnane X receptor (PXR) small molecule agonists, qHTS cell viability counter screen (AID 1346977); further: on the % scale 0 is the no-effect control and ±100 the full control effect; nearly all actives have a fitted effect of over 50% in size
REPORTED CONDITIONS: PXR-Luc HepG2 viability, CellTiter-Fluor, 24 h; series mostly up to 92.4 µM
Records with an inconclusive call do not appear. Calls of active or inactive are those of the source. The call rests on the fitted dose curve; in most records, active means well fitted cell-killing curve with a large enough effect in the repeat runs; inconclusive means weak or mixed curves, or effect the other way; inactive means flat fitted curve, though single readings scatter.
MEASURE: activity change, negative = cytotoxicity

• O=[N+]([O-])c1ccc(CCO)cc1 = inactive
• C[C@H](O)C(=O)Nc1c(I)c(C(=O)NC(CO)CO)c(I)c(C(=O)NC(CO)CO)c1I = inactive
• CCCOCC(C)OCC(C)O (centres undefined) = inactive
• NC(=O)Nc1nc2ccccc2[nH]1 = inactive
• CC1(C)SC(C)(C)SC(C)(C)S1 = inactive
• c1ccc(SCCSc2ccccc2)cc1 = inactive
• C[C@H]1O[C@@H](n2cc(F)c(=O)[nH]c2=O)[C@H](O)[C@@H]1O = inactive
• CC(C)(C)C(=O)/C=C/c1ccc(Cl)cc1 = inactive
• Cc1ncc(CSSCc2cnc(C)c(O)c2CO)c(CO)c1O = inactive
• CCCCCC[C@@H](CCC)C(=O)O = inactive
• CC(C)COC(=O)c1ccccc1O = inactive
• CC(C)CCCC(C)CCCC(C)CCCCC(C)CCCC(C)CCCC(C)C (centres undefined) = inactive
• CC(C)c1cccc(O)c1 = inactive
• CCOC(=O)[C@H](CCc1ccccc1)N[C@@H](C)C(=O)N1CCC[C@H]1C(=O)O = inactive
• CC(C)c1cccc(C(C)C)c1N = inactive
• COC(=O)CCCCCCCCC(=O)OC = inactive
• CCC(C)OC(=O)N1CCCCC1CCO (centres undefined) = inactive
• C=C(C)C(=O)OCCC(C)OC(=O)C(=C)C (centres undefined) = inactive
• Cn1ccc2cc3c(cc21)CCN3C(=O)Nc1cccnc1 = 0% [at 19 µM] (inactive)

###

ASSAYED TARGET: Thyrotropin receptor (Homo sapiens) (UniProt P16473)
Sequence (P16473 whole entry, looked up): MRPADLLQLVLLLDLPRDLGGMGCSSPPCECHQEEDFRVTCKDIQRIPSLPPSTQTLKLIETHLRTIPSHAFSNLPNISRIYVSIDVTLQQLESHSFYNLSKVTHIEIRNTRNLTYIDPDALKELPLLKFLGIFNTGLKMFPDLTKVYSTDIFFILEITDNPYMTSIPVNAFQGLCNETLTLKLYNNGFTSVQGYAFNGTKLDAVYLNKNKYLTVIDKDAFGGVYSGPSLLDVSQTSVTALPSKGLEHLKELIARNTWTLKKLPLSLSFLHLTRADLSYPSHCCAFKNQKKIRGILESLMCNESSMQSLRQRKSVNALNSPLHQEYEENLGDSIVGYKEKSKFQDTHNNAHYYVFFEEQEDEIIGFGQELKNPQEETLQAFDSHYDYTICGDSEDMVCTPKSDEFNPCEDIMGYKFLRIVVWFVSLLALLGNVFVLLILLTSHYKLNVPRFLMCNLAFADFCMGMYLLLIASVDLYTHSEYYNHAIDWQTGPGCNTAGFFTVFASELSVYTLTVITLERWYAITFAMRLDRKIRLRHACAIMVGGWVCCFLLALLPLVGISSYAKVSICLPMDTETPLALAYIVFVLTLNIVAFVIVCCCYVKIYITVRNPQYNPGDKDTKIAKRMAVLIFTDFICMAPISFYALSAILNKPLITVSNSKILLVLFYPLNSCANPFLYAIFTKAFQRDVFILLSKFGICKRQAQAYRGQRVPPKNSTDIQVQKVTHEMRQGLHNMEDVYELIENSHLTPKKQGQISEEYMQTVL
ASSAY DETAILS: qHTS assay to identify small molecule antagonists of the thyroid stimulating hormone receptor (TSHR) signaling pathway (AID 1259385); further: on the % scale 0 is the no-effect control and ±100 the full control effect; nearly all actives have a fitted effect of over 20% in size
REPORTED CONDITIONS: TSHR-HEK293 cAMP HTRF, TSH-stimulated antagonist mode; series mostly up to 92.4 µM
Records with an inconclusive call do not appear. Calls of active or inactive are those of the source. Calls follow the shape of the full dose curve.
MEASURE: activity change, negative = inhibition

• Cc1onc(-c2ccccc2)c1-c1ccc(S(N)(=O)=O)cc1 = inactive
• O=S(=O)(O)c1ccccc1O = inactive
• CCn1cc(C(=O)O)c(=O)c2cc(F)c(N3CCN(C)CC3)cc21 = 0.775% [at 19 µM] (inactive)
• C=CCSCC1Nc2cc(Cl)c(S(N)(=O)=O)cc2S(=O)(=O)N1 (centres undefined) = inactive
• Cc1ccccc1Br = inactive
• COCCOC(=O)CC#N = inactive
• O=C1OC(=O)c2cc([N+](=O)[O-])ccc21 = inactive
• O=c1[nH]c2ccccc2c(=O)n1CCCl = inactive
• CC(=O)NC(Cc1ccccc1)C(=O)O (centres undefined) = inactive
• C=C(C)C(=O)OCCCCCCCCCCCCCCCCCC = 0.559% [at 19 µM] (inactive)
• CC1(C)SC(C)(C)SC(C)(C)S1 = inactive
• N#CC1(O)CCCCC1 = inactive
• COc1ccc2cc(C=O)ccc2c1 = inactive
• CCCCC=O = inactive

###

ASSAYED TARGET: Estrogen receptor (Homo sapiens)
ASSAY DETAILS: qHTS assay to identify small molecule agonists of the estrogen receptor alpha (ER-alpha) signaling pathway (AID 743075);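 further: HEK293 GripTite cells with ER-alpha and UAS-driven beta-lactamase reporter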
REPORTED CONDITIONS: HEK293 ER-alpha-UAS-bla, beta-lactamase FRET ratio, 18 h; series mostly up to 70.1 µM
Active and inactive are the calls of the source. The call rests on the fitted dose curve.
Labels: active, inactive

* CN(C)C(=O)Nc1ccccc1 | inactive
* c1ccc(CCCc2ccccn2)cc1 | inactive
* CCCc1ccc(N)cc1 | inactive
* CC(C)(C)C(=O)/C=C/c1ccc(Cl)cc1 | inactive
* Nc1[nH]c(=O)ncc1F | inactive
* C=C(C)[C@H]1CC=C(C)CC1 | inactive
* CC(=O)NC(Cc1ccccc1)C(=O)O (stereo not given) | inactive
* c1cc(CN2CCCCC2)cc(OCCCNc2nc3ccccc3s2)c1 | inactive
* O=Cc1ccccc1[N+](=O)[O-] | inactive
* Cc1ncc(CSSCc2cnc(C)c(O)c2CO)c(CO)c1O | inactive
* Cc1ccc(Nc2ccc(O)c3c2C(=O)c2ccccc2C3=O)cc1 | inactive
* NC(=O)CCCCC1CCSS1 (stereo not given) | active
* C=C(C)C1CC=C(C)C(O)C1 (stereo not given) | inactive
* NC(=O)Nc1nc2ccccc2[nH]1 | inactive
* CC/C=C\C#N | inactive
